Documented cell viability across a set of compounds
Tested on: U2OS
Assay Procedure: cell viability relative to DMSO; higher = less toxic
Stated Conditions: 72 h; 1 nM
Express the reported value numerically, then name its unit.

Field: example entries. Status: answers known.
Compound	cell viability
O=C(O)CCn1c2c(c3ccccc31)C[C@H](NS(=O)(=O)c1ccc(F)cc1)CC2	100%
CCn1cnc(C(=O)NC)c1C(=O)NC	98.6%
C[C@]12C=CC(=O)C=C1CC[C@@H]1[C@@H]2CC[C@]2(C)OC(=O)CC[C@@H]12	95.8%

// moving on: another record for cell viability
## Task Notebook: pull reported cell viability for U2OS, entry CN1c2ccccc2C(=O)N2CCc3c([nH]c4ccccc34)C21 (stereo in doubt)
## Result 94.7%
